- TARGET_UNDER_TEST: HLA-A*0201 (human)
- ASSAY_SUMMARY: inhibition of 125I probe peptide, purified HLA
pIC50: −log10 of the molar value.
PROPERTY: pIC50

>>> print(df.to_string())
                   binder  property  assay_value
0  ILIGVLVGV [CEA.691.L2]     pIC50         7.66
